Data provenance is patent US20230049752A1.

molecular target: human Claudin-6 (CLDN6) (human) (UniProt P56747); assay: FACS, 1.5 ug Ab, 293T clone expressing human CLDN6 (2nd Ab only 768.07)
endpoint-label: FACS fluorescence
Answer field: number only, no words.

So for AB18-4 (antibody, V domains shown) VH: QVQLVQSGAEVKKPGASVKVSCKASGYSFTGYNMNWVRQAPGQGLEWMGNIDPYYGGSTYAQKFQGRVTMTVDTSTSTVYMELSSLRSEDTAVYYCARERSGYVFSAMDYWGQGTLVTVSS VL: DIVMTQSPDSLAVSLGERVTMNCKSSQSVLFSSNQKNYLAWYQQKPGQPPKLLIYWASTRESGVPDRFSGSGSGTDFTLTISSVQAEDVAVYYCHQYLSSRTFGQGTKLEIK , the logged FACS fluorescence turned out to be 54400

# FACS fluorescence of AB4-9 (antibody, V domains shown, humanized) VH: QVQLVQSGAEVKKPGASVKMSCKASGYTFTSYTMHWIRQAPGQGLEWIGYINPSSTYTHYIKKFKDRATLTADTSTSTAYMELSSLRSEDTAVYYCSRGELGGFAYWGQGTLVTVSS VL: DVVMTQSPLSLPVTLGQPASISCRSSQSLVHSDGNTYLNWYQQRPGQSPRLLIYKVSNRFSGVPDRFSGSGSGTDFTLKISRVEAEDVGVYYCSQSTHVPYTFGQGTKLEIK = 56900

# FACS fluorescence of AB9-3 (antibody, V domains shown) VH: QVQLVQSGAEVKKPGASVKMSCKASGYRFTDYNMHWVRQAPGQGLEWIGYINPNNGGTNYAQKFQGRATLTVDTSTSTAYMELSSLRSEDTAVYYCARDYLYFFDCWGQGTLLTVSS VL: DIQMTQSPSSLSASVGDRVTITCLASQTIGTWLAWYQQKPGKAPKLLIYAAASLADGVPSRFSGSGSGTDFTFTISSLQPEDFVTYYCQQLYSIPRTFGQGTKLEIK = 24600

Notebook: AB1-11 (antibody, V domains shown, humanized; also called humanized AB1-11; HU-11) VH: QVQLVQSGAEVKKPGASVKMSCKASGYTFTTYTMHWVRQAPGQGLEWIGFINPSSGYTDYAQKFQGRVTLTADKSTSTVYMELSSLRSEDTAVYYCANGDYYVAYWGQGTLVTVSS VL: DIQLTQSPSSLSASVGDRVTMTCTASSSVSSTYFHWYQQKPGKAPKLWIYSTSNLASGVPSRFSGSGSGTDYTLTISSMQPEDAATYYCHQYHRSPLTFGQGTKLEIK , FACS fluorescence read as 113000

The reported value for AB3-3 (antibody, V domains shown, humanized) VH: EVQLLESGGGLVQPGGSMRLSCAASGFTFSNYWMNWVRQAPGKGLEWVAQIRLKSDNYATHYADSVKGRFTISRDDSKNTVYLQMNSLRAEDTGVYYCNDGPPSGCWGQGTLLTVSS VL: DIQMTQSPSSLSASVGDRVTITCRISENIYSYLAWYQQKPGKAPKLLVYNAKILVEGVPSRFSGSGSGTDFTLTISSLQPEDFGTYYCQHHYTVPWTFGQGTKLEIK in terms of FACS fluorescence is 340000

Record AB1-7 (antibody, V domains shown, humanized) VH: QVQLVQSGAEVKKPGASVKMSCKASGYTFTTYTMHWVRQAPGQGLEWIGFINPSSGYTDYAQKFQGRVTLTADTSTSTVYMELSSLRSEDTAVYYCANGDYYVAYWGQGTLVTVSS VL: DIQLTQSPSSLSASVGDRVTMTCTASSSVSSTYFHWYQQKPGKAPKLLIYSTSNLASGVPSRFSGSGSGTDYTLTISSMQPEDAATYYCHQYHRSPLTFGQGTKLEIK . Reported FACS fluorescence: 207000

Quick note, FACS fluorescence for AB1-Chim (antibody, V domains shown) VH: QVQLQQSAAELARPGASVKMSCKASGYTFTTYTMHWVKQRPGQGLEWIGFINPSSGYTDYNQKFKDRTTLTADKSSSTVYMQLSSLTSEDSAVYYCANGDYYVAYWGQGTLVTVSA VL: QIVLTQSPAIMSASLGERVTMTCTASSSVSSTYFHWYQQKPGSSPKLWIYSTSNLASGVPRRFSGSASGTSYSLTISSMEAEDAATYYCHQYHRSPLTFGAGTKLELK landed at 364000

Memo: AB1-8 (antibody, V domains shown, humanized) VH: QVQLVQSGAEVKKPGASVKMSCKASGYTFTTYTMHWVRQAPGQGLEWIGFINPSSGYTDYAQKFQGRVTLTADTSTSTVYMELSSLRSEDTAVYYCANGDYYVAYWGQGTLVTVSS VL: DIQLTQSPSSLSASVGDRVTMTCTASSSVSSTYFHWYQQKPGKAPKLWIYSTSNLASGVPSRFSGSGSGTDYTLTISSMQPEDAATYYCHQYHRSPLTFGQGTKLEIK , reported FACS fluorescence: 210000

Query AB11-3 (antibody, V domains shown, humanized) VH: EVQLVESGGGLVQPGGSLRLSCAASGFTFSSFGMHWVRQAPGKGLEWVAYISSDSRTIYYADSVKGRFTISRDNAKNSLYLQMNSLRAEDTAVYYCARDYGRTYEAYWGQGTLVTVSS VL: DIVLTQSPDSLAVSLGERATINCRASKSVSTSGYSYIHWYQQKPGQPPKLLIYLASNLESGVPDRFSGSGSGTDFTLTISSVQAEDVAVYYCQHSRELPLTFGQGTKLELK yields FACS fluorescence of 2360
